Where do these numbers come from? They come from patent US6583177B2.

Recorded below: pIC50, system PLA2 (derived from hog pancreas) (Sus scrofa, UniProt P00592).
# log scale: pIC50 equals minus log10 of the concentration in mol/L

Worked cases, pIC50 given:
CCOC(=O)CN(C(=O)c1ccc(C(=O)Oc2ccc3c(c2)CCC(C(=N)N)=C3)cc1)c1ccccc1 = 5.09
CCOC(=O)/C=C/CC(NC(=O)/C(C)=C/c1ccc(C(=O)Oc2ccc(C(=N)N)cc2)cc1)(C(=O)OCC)C(=O)OCC = 4.96
C=CCN(CC(=O)OCC)C(=O)/C=C/C=C/c1ccc(C(=O)Oc2ccc(C(=N)N)cc2)cc1 = 5.00

Param readout= pIC50; system= PLA2 (derived from hog pancreas) (Sus scrofa, UniProt P00592); entry= C=CCN(CC(=O)OCC)C(=O)c1ccc(/C=C(\C)C(=O)Oc2ccc(C(=N)N)cc2)cc1 ; returns value.
4.03

Param readout= pIC50; system= PLA2 (derived from hog pancreas) (Sus scrofa, UniProt P00592); entry= CCOC(=O)[C@H](COC(=O)c1ccccc1)NC(=O)/C(C)=C/c1ccc(C(=O)Oc2ccc(C(=N)N)cc2)cc1 [Example 2(e)] ; returns value.
5.07
